Molecular target: CSF-1R (Homo sapiens, UniProt P07333)
Sequence (P07333 20-972): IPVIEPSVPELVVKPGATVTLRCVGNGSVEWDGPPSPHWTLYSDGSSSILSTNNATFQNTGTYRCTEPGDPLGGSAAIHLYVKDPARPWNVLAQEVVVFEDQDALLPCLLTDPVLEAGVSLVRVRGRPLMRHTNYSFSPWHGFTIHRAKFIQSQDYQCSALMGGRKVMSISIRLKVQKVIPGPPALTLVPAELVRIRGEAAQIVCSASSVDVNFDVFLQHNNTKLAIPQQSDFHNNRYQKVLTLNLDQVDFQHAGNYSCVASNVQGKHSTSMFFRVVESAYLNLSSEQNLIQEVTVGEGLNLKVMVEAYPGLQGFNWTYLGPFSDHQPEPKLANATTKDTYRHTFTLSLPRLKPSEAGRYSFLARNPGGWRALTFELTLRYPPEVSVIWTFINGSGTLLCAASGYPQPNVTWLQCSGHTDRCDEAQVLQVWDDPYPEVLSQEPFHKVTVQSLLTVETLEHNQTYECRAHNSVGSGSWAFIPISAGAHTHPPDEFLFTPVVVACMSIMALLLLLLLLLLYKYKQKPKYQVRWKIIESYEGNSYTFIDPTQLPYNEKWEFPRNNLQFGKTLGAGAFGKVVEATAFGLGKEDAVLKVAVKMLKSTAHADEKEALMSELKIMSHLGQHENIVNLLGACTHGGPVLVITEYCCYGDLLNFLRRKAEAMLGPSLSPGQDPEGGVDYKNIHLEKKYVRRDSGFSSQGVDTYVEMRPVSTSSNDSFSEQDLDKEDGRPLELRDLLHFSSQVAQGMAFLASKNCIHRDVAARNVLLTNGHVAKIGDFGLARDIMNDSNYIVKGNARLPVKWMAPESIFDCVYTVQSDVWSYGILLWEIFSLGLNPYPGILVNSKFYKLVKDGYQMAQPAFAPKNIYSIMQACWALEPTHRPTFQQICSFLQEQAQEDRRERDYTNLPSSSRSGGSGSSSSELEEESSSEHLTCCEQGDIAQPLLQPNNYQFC
observable: IC50 (nM)

Use these answered entries as a reference point.
CCn1cc(-c2cc(Oc3ccc(-c4cnc5n(c4=O)CCCN5C)nc3C)ccn2)cn1 [Example 8] :: 77.7
Cc1nc(-c2cnc3n(c2=O)CCCN3C)ccc1Oc1ccnc(-c2cn[nH]c2)c1 [Example 7] :: 84.2
Cc1nc(-c2cnc3n(c2=O)CCCN3C2CCC2)ccc1Oc1ccnc(-c2cnn(C)c2)c1 [Example 9] :: 68.3

(a) Cc1nc(-c2cnc3n(c2=O)CCCN3C(C)C)ccc1Oc1ccnc(-c2cnn(C)c2)c1 [Example 5]
(b) CCCN1CCCn2c1ncc(-c1ccc(Oc3ccnc(-c4cnn(C)c4)c3)c(C)n1)c2=O [Example 11]
(c) Cc1nc(-c2cnc3n(c2=O)CCN3C)ccc1Oc1ccnc(-c2cnn(C)c2)c1 [Example 3]
Given 3 compounds, produce a descending ranking by IC50. Answer format: the labels, in the requested order. b, c, a

====

Test system: M-NFS-60 mouse myeloid leukemia lymphocytes
Experiment: CSF-1R-related cell proliferation experiment (Cell Titer Glo), M-NFS-60 cells with M-CSF
Assay type: cell-based
Details: Lymphocyte, 72 h, 3 days, CTG, * = average of multiple tests, read-out: Cytological experiment CSF1R IC50
pIC50: −log10 of the molar value.
observable: pIC50

Use these answered entries as a reference point.
CCn1cc(-c2cc(Oc3ccc(-c4cnc5n(c4=O)CCCN5C)nc3C)ccn2)cn1 :: 6.82
Cc1nc(-c2cnc3n(c2=O)CC[C@@H]2CCCN32)ccc1Oc1ccnc(-c2cnn(C)c2)c1 :: 7.07
Cc1nc(-c2cnc3n(c2=O)CCCN3C(C)C)ccc1Oc1ccnc(-c2cnn(C)c2)c1 :: 6.90
CCN1CCCn2c1ncc(-c1ccc(Oc3ccnc(-c4cnn(C)c4)c3)c(C)n1)c2=O :: 7.42
CCCN1CCCn2c1ncc(-c1ccc(Oc3ccnc(-c4cnn(C)c4)c3)c(C)n1)c2=O :: 6.65

(a) Cc1nc(-c2cnc3n(c2=O)CCCN3C2CCC2)ccc1Oc1ccnc(-c2cnn(C)c2)c1
(b) Cc1nc(-c2cnc3n(c2=O)CCCN3C)ccc1Oc1ccnc(-c2cn[nH]c2)c1
Recorded pIC50 values differ for a and b ; which one is higher? Indicate which entry you chose by stating its label. a
(a: 7.19, b: 6.30)

====

Tested on: M-NFS-60 mouse myeloid leukemia lymphocytes
Test: CSF-1R-related cell proliferation experiment (Cell Titer Glo), M-NFS-60 cells with M-CSF
Type: cell-based
Settings: Lymphocyte, 72 h, 3 days, CTG, * = average of multiple tests, read-out: Cytological experiment CSF1R IC50
pIC50: −log10 of the molar value.
observable: pIC50

Cc1nc(-c2cnc3n(c2=O)CCC(C)N3C)ccc1Oc1ccnc(-c2cnn(C)c2)c1 (stereo not drawn) [Example 10] :: 6.87

(1) Cc1nc(-c2cnc3n(c2=O)CCCN3C)ccc1Oc1ccnc(-c2cnn(C)c2)c1 [Example 1]
(2) Cc1nc(-c2cnc3n(c2=O)CCN3C)ccc1Oc1ccnc(-c2cnn(C)c2)c1 [Example 3]
Record comparison, field pIC50: mark the lower of 1 and 2 . Indicate which entry you chose by stating its label. 2
(2: 6.60, 1: 7.00)

====

Molecular target: PDGFRA kinase (Homo sapiens)
Sequence (P16234 24-1089): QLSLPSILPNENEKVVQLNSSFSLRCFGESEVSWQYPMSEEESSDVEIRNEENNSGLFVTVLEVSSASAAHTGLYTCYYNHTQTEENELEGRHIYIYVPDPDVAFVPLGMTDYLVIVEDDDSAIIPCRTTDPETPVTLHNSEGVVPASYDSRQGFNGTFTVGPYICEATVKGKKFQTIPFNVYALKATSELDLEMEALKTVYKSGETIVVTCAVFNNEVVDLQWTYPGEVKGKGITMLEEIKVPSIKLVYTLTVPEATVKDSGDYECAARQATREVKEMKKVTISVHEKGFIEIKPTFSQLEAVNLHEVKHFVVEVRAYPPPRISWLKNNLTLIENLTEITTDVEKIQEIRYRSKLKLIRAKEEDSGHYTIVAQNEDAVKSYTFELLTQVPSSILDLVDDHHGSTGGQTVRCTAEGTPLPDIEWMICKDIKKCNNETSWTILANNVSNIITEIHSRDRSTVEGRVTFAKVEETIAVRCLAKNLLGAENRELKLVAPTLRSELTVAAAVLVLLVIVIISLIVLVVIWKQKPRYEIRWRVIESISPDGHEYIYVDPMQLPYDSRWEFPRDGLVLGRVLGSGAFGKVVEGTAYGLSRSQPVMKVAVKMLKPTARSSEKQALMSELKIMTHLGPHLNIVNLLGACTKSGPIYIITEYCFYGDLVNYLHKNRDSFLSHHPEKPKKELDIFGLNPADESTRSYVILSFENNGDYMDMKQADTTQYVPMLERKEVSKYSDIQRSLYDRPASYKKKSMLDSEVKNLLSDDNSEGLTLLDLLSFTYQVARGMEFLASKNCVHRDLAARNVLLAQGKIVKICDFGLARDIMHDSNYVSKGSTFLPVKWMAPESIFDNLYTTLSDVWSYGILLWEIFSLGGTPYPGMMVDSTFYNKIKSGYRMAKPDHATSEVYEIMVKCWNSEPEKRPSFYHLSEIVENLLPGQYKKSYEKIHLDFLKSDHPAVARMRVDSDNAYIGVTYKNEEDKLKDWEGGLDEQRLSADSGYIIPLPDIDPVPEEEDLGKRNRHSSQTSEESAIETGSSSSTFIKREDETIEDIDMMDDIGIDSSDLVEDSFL
observable: pIC50
FYI, pIC50 means -log10 of a concentration in mol per litre.

Looking up "Cc1nc(-c2cnc3n(c2=O)CCCN3C(C)C)ccc1Oc1ccnc(-c2cnn(C)c2)c1" , I found its pIC50 recorded as 6.65

====

System: M-NFS-60 mouse myeloid leukemia lymphocytes
Experiment: CSF-1R-related cell proliferation experiment (Cell Titer Glo), M-NFS-60 cells with M-CSF
Format: cell-based
Settings: Lymphocyte, 72 h, 3 days, CTG, absolute half maximal inhibition, * = average of multiple tests, read-out: Cytological experiment CSF-1R Absolute IC50
pIC50: −log10 of the molar value.
observable: pIC50

Use these answered entries as a reference point.
Cc1nc(-c2cnc3n(c2=O)CCCN3C2CCC2)ccc1Oc1ccnc(-c2cnn(C)c2)c1 [Example 9] :: 7.23
CCN1CCCn2c1ncc(-c1ccc(Oc3ccnc(-c4cnn(C)c4)c3)c(C)n1)c2=O [Example 4] :: 7.69
Cc1nc(-c2cnc3n(c2=O)CC[C@@H](C)N3)ccc1Oc1ccnc(-c2cnn(C)c2)c1 [Example 6] :: 6.15

(1) Cc1nc(-c2cnc3n(c2=O)CCN3C)ccc1Oc1ccnc(-c2cnn(C)c2)c1 [Example 3]
(2) Cc1nc(-c2cnc3n(c2=O)CCCN3C)ccc1Oc1ccnc(-c2cn[nH]c2)c1 [Example 7]
Record comparison, field pIC50: mark the lower of 1 and 2 . Indicate which entry you chose by stating its label. 2
(2: 6.31, 1: 6.73)

(P) Cc1nc(-c2cnc3n(c2=O)CC[C@@H]2CCCN32)ccc1Oc1ccnc(-c2cnn(C)c2)c1 [Example 12]
(Q) CCCN1CCCn2c1ncc(-c1ccc(Oc3ccnc(-c4cnn(C)c4)c3)c(C)n1)c2=O [Example 11]
Record comparison, field pIC50: mark the lower of P and Q . Indicate which entry you chose by stating its label. Q

Just for reference, patent US11130762B2 is where these values come from.
